Data provenance: patent US8957074B2

Target: CDK1/cyclin B (Homo sapiens (Human))
Sequence (P06493 whole entry, species assumed): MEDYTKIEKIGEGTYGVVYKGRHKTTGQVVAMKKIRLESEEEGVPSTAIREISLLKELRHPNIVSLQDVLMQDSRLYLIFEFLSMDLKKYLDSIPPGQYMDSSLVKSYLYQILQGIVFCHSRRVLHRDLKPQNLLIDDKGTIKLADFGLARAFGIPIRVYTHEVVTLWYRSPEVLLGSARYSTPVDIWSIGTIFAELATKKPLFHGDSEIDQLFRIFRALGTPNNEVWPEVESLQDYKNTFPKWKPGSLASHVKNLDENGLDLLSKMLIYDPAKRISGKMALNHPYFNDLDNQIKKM
Sequence (P14635 whole entry partner, species assumed): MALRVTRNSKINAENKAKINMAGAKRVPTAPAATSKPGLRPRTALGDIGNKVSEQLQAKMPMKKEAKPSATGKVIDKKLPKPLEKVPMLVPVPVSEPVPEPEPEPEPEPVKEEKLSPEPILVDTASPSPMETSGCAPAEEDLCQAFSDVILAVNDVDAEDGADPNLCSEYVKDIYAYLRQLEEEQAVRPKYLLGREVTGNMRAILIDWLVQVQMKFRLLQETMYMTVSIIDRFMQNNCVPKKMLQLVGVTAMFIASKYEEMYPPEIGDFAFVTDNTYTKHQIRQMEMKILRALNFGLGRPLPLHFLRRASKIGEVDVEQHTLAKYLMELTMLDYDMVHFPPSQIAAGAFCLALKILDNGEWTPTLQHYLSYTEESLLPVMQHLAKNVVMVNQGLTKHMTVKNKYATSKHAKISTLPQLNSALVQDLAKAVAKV
Experiment: CDK1/cyclin B enzymatic activity assay (IMAP-FP)
Format: biochemical
Conditions: […] CDK1/cyclin B, 100 nM Tamra Histone-H1 peptide, 20 μM ATP, 120 min at room temperature; read-out: Biochemical CDK1 enzyme IC50
Give IC50 for every item shown.

Asked: Form field - read-out: IC50; system: CDK1/cyclin B (Homo sapiens (Human)); submitted item: CN(C)C(=O)c1cc2cnc(Nc3ccc(C(=O)N4CC5COCC(C4)N5)cn3)nc2n1C1CCCC1
Given back: > 15 µM

Asked: Form field - read-out: IC50; system: CDK1/cyclin B (Homo sapiens (Human)); submitted item: CN(C)C(=O)c1cc2cnc(Nc3ccc(C(=O)N4CC5CCC4C5O)cn3)nc2n1C1CCCC1 (stereo not drawn)
Given back: > 15 µM

Asked: Form field - read-out: IC50; system: CDK1/cyclin B (Homo sapiens (Human)); submitted item: CN(C)C(=O)c1cc2cnc(Nc3ccc(C(=O)N4C5CCC4CNC5)cn3)nc2n1C1CCCC1
Given back: > 15 µM

Asked: Form field - read-out: IC50; system: CDK1/cyclin B (Homo sapiens (Human)); submitted item: CN(C)C(=O)c1cc2cnc(Nc3ccc(N4C[C@H]5CNC[C@H]5C4=O)cn3)nc2n1C1CCCCCC1
Given back: 5.32 µM

Asked: Form field - read-out: IC50; system: CDK1/cyclin B (Homo sapiens (Human)); submitted item: CC(C)[C@@H](N)C(=O)N1C2CCC1CN(C(=O)c1ccc(Nc3ncc4cc(C(=O)N(C)C)n(C5CCCC5)c4n3)nc1)C2
Given back: 39.9 µM

Asked: Form field - read-out: IC50; system: CDK1/cyclin B (Homo sapiens (Human)); submitted item: CN(C)C(=O)c1cc2cnc(Nc3ccc(N4C[C@@H]5CC[C@H](CC4=O)N5)cn3)nc2n1C1CCC1
Given back: > 15 µM

Asked: Form field - read-out: IC50; system: CDK1/cyclin B (Homo sapiens (Human)); submitted item: CN(C)C(=O)c1cc2cnc(Nc3ccc(N4C[C@@H]5CC[C@H](CC4=O)N5)cn3)nc2n1C1CCCCC1
Given back: > 15 µM

Asked: Form field - read-out: IC50; system: CDK1/cyclin B (Homo sapiens (Human)); submitted item: CN(C)C(=O)c1cc2cnc(Nc3ccc(C(=O)N4CC5CCC(C4)N5C(=O)CN)cn3)nc2n1C1CCCC1
Given back: > 15 µM

Asked: Form field - read-out: IC50; system: CDK1/cyclin B (Homo sapiens (Human)); submitted item: CN(C)C(=O)c1cc2cnc(Nc3ccc(N4CC5(CCCNC5)OC4=O)cn3)nc2n1C1CCCC1 (stereo not drawn)
Given back: > 15 µM

Asked: Form field - read-out: IC50; system: CDK1/cyclin B (Homo sapiens (Human)); submitted item: CN(C)C(=O)c1cc2cnc(Nc3ccc(C(=O)N4C[C@H]5C[C@@H]4CN5)cn3)nc2n1C1CCCC1
Given back: > 15 µM

Asked: Form field - read-out: IC50; system: CDK1/cyclin B (Homo sapiens (Human)); submitted item: CN(C)C(=O)c1cc2cnc(Nc3ccc(C(=O)N4CCC5(CC4)CNC5)cn3)nc2n1C1CCCCCC1
Given back: > 15 µM

Asked: Form field - read-out: IC50; system: CDK1/cyclin B (Homo sapiens (Human)); submitted item: CN(C)C(=O)c1cc2cnc(Nc3ccc(N4CCN5CCC[C@H]5C4=O)cn3)nc2n1C1CCCC1
Given back: > 15 µM

Asked: Form field - read-out: IC50; system: CDK1/cyclin B (Homo sapiens (Human)); submitted item: CN(C)C(=O)c1cc2cnc(Nc3ccc(N4C[C@@H]5CC[C@H](CC4=O)N5)cn3)nc2n1C1CCCC1
Given back: > 15 µM

Asked: Form field - read-out: IC50; system: CDK1/cyclin B (Homo sapiens (Human)); submitted item: CN(C)C(=O)c1cc2cnc(Nc3ccc(C(=O)N4CC5CC(C4)N(C)C5)cn3)nc2n1C1CCCC1 (stereo not drawn)
Given back: 8.44 µM

Asked: Form field - read-out: IC50; system: CDK1/cyclin B (Homo sapiens (Human)); submitted item: CN(C)C(=O)c1cc2cnc(Nc3ccc(N4C[C@@]5(CCCNCC5)OC4=O)cn3)nc2n1C1CCCC1
Given back: > 15 µM

---

Give IC50 for every item shown.
Biological target: CDK4/cyclin D1 (Homo sapiens (Human), UniProt P11802)
Sequence (P11802 whole entry): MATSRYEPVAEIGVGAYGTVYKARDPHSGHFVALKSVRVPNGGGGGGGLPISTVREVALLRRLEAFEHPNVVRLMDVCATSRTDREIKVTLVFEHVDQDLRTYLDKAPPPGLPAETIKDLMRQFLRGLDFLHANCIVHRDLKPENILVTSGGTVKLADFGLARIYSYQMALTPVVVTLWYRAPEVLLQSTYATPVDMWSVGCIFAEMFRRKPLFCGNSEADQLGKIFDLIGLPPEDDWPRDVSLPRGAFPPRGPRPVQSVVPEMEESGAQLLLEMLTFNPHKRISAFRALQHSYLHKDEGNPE
Sequence (P24385 whole entry partner): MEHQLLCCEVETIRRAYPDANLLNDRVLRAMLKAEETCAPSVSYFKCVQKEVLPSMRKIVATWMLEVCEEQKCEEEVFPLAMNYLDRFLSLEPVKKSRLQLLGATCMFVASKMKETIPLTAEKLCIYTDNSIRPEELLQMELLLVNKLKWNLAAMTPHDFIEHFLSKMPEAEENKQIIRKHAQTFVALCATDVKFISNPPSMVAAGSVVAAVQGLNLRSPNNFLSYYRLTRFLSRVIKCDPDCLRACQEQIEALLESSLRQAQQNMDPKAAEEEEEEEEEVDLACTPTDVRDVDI
Assay: CDK4/cyclin D1 enzymatic activity assay (TR-FRET, phosphorylation of pRb at Ser780)
Assay type: biochemical
Settings: 0.3 nM CDK4/cyclin D1, 150 nM biotin-pRb (773-924), 3 μM ATP, 60 min at 22° C.; read-out: Biochemical CDK4 enzyme IC50

Asked: Form field - read-out: IC50; system: CDK4/cyclin D1 (Homo sapiens (Human), UniProt P11802); submitted item: CN(C)C(=O)c1cc2cnc(Nc3ccc(N4C[C@@H]5CC[C@H](CC4=O)N5C)cn3)nc2n1C1CCCC1
Given back: 45 nM

Asked: Form field - read-out: IC50; system: CDK4/cyclin D1 (Homo sapiens (Human), UniProt P11802); submitted item: CN(C)C(=O)c1cc2cnc(Nc3ccc(C(=O)N4CC5(CNC5)C4)cn3)nc2n1C1CCCC1
Given back: 15 to 17 nM

Asked: Form field - read-out: IC50; system: CDK4/cyclin D1 (Homo sapiens (Human), UniProt P11802); submitted item: CN(C)C(=O)c1cc2cnc(Nc3ccc(N4C[C@H]5CNC[C@H]5CC4=O)cn3)nc2n1C1CCCCCC1 (stereo in doubt)
Given back: 5 nM

Asked: Form field - read-out: IC50; system: CDK4/cyclin D1 (Homo sapiens (Human), UniProt P11802); submitted item: CN(C)C(=O)c1cc2cnc(Nc3ccc(C(=O)N4C[C@@H]5CN[C@@H](C5)C4)cn3)nc2n1C1CCCC1
Given back: 5 nM

Asked: Form field - read-out: IC50; system: CDK4/cyclin D1 (Homo sapiens (Human), UniProt P11802); submitted item: CN(C)C(=O)c1cc2cnc(Nc3ccc(C(=O)N4CC5CN(Cc6ccccc6)CC(C4)O5)cn3)nc2n1C1CCCC1
Given back: 100 nM

Asked: Form field - read-out: IC50; system: CDK4/cyclin D1 (Homo sapiens (Human), UniProt P11802); submitted item: CN(C)C(=O)c1cc2cnc(Nc3ccc(N4CC5CCC(C4)N5)cn3)nc2n1C1CCCC1
Given back: 11 to 34 nM

Asked: Form field - read-out: IC50; system: CDK4/cyclin D1 (Homo sapiens (Human), UniProt P11802); submitted item: CN(C)C(=O)c1cc2cnc(Nc3ccc(C(=O)N4CC5CCC4C5O)cn3)nc2n1C1CCCCCC1 (stereo not shown)
Given back: 21 nM

---

Tested on: phosphorylation of pRb at the Ser780 site in JeKo-1 mantle cell lymphoma cells
Test: CDK4 cellular assay: ELISA of pRb phosphorylation at Ser780 in JeKo-1 cells
Type: cell-based
Conditions: Homo sapiens; JeKo-1 cells, p-pRb Ser780 ELISA, non-normalized; read-out: Cellular ppRb inhibition IC50
quantity name: pIC50
In simple prose, pIC50 is minus the logarithm base ten of a concentration in moles per litre.

Asked: Which value of pIC50 has been reported for CN(C)C(=O)c1cc2cnc(Nc3ccc(N4C[C@]5(CCCNC5)OC4=O)cn3)nc2n1C1CCCC1 in the records?
Given back: 7.39

Asked: Which value of pIC50 has been reported for CN(C)C(=O)c1cc2cnc(Nc3ccc(N4CC5(CC6CCC(C5)N6)OC4=O)cn3)nc2n1C1CCCC1 (stereo not shown) in the records?
Given back: 7.24

Asked: Which value of pIC50 has been reported for CN(C)C(=O)c1cc2cnc(Nc3ccc(C(=O)N4CC5CC5(N(C)C)C4)cn3)nc2n1C1CCCC1 (stereo not shown) in the records?
Given back: 6.55

Asked: Which value of pIC50 has been reported for CN(C)C(=O)c1cc2cnc(Nc3ccc(N4CC5COCC(CC4=O)N5)cn3)nc2n1C1CCCC1 (stereo not shown) in the records?
Given back: 7.35

Asked: Which value of pIC50 has been reported for CC(=O)N1C2CCC1CN(C(=O)c1ccc(Nc3ncc4cc(C(=O)N(C)C)n(C5CCCCCC5)c4n3)nc1)C2 in the records?
Given back: 7.14

Asked: Which value of pIC50 has been reported for CN(C)C(=O)c1cc2cnc(Nc3ccc(C(=O)N4CC5CC4CN5)cn3)nc2n1C1CCCCC1 (stereo not shown) in the records?
Given back: 7.29

Asked: Which value of pIC50 has been reported for CN(C)C(=O)c1cc2cnc(Nc3ccc(N4C[C@@]5(CCCNCC5)OC4=O)cn3)nc2n1C1CCCC1 in the records?
Given back: 7.21

Asked: Which value of pIC50 has been reported for CN(C)C(=O)c1cc2cnc(Nc3ccc(C(=O)N4CC5CCC(C4)C5(C)O)cn3)nc2n1C1CCCCCC1 (stereo not shown) in the records?
Given back: 6.83

Asked: Which value of pIC50 has been reported for CNC(=O)c1cc2cnc(Nc3ccc(N4C[C@H]5CC[C@@H](CC4=O)N5C)cn3)nc2n1C1CCCC1 in the records?
Given back: 7.08

Asked: Which value of pIC50 has been reported for CC(C)[C@@H](N)C(=O)N1C2CCC1CN(C(=O)c1ccc(Nc3ncc4cc(C(=O)N(C)C)n(C5CCCC5)c4n3)nc1)C2 in the records?
Given back: 6.54

Asked: Which value of pIC50 has been reported for CN1CCCC2(CC1)CN(c1ccc(Nc3ncc4cc(C(=O)N(C)C)n(C5CCCC5)c4n3)nc1)C(=O)O2 (stereo not shown) in the records?
Given back: 7.54

Asked: Which value of pIC50 has been reported for CN(C)C(=O)c1cc2cnc(Nc3ccc(C(=O)N4CC5CC(C4)N(CC(F)(F)F)C5)cn3)nc2n1C1CCCC1 (stereo not shown) in the records?
Given back: 6.59

Asked: Which value of pIC50 has been reported for CN(C)C(=O)c1cc2cnc(Nc3ccc(C(=O)N4CC[C@H]5CC[C@@H](C4)N5)cn3)nc2n1C1CCCC1 in the records?
Given back: 7.51

Asked: Which value of pIC50 has been reported for CN(C)C(=O)c1cc2cnc(Nc3ccc(C(=O)N4CC5CCC(C4)C5N(C)C)cn3)nc2n1C1CCCC1 (stereo not shown) in the records?
Given back: 7.12

Asked: Which value of pIC50 has been reported for CN(C)C(=O)c1cc2cnc(Nc3ccc(C(=O)N4C[C@@H]5[C@@H](N)[C@@H]5C4)cn3)nc2n1C1CCCC1 in the records?
Given back: 7.07

Asked: Which value of pIC50 has been reported for CN(C)C(=O)c1cc2cnc(Nc3ccc(N4C[C@@]5(CCCNC5)OC4=O)cn3)nc2n1C1CCCC1 in the records?
Given back: 7.32

Asked: Which value of pIC50 has been reported for CSCC[C@@H](N)C(=O)N1C2CCC1CN(C(=O)c1ccc(Nc3ncc4cc(C(=O)N(C)C)n(C5CCCC5)c4n3)nc1)C2 in the records?
Given back: 5.60

Asked: Which value of pIC50 has been reported for CN(C)C(=O)c1cc2cnc(Nc3ccc(C(=O)N4CCC5CCC(C4)N5)cn3)nc2n1C1CCCC1 (racemic) in the records?
Given back: 7.62

Asked: Which value of pIC50 has been reported for Cc1cc(Nc2ncc3cc(C(=O)N(C)C)n(C4CCCC4)c3n2)ncc1C(=O)N1CC2CCC(C1)N2 in the records?
Given back: 7.55

Asked: Which value of pIC50 has been reported for CN(C)C(=O)c1cc2cnc(Nc3ccc(N4C[C@H]5CC[C@@H](CC4=O)N5CC(F)(F)F)cn3)nc2n1C1CCCC1 in the records?
Given back: 7.51
